experiment: phase I plasma pharmacokinetics (non-compartmental, LC-MS/MS); assay type: in vivo, human; conditions: human, plasma, po, 400 mg, single oral administration, 400 mg larotinib mesylate, plasma; read-out: AUC0-∞, mean (min–max)
Structures can show the parent of a compound that is named as a salt.
result_type: AUC(0-inf) (ng·h/mL)
A number alone suffices; assume ng·h/mL.

Exercise: So what's the measured AUC(0-inf) for this one? COc1cc2ncnc(Nc3ccc(F)c(Cl)c3)c2cc1OCCCN1C[C@@H]2OCCO[C@@H]2C1 [larotinib mesylate]
Key: 9090

====

Assay: phase I plasma pharmacokinetics (non-compartmental, LC-MS/MS)
Format: in vivo, human
Details: human, plasma, po, 100 mg, multiple oral administration, 100 mg larotinib mesylate, steady state, plasma; read-out: Cmax,ss, mean (min–max)
Procedure: This was a phase I, single-center, open-label, dose-escalation study conducted at First Hospital of Jilin University, China (registration no.: ChiCTR-OPC-15007153 registered at http://www.chictr.org.cn). […] After cycle 0, larotinib mesylate was continuously administered once daily for 28 days in cycle 1, and the tolerance and pharmacokinetic characteristics of multiple doses were evaluated (Figure 2). […]
Where a name gives a salt, the structure may show the parent alone.
result_type: Cmax

Exercise: Fill in the blank: the reported Cmax of COc1cc2ncnc(Nc3ccc(F)c(Cl)c3)c2cc1OCCCN1C[C@@H]2OCCO[C@@H]2C1 [larotinib mesylate] is ____.
Key: 131 ng/mL

====

assay: phase I plasma pharmacokinetics (non-compartmental, LC-MS/MS); assay type: in vivo, human; settings: human, plasma, po, 400 mg, single oral administration, 400 mg larotinib mesylate, plasma; read-out: AUC0-24, mean (min–max)
Structures can show the parent of a compound that is named as a salt.
result_type: AUC(0-t) (ng·h/mL)
A number alone suffices; assume ng·h/mL.

Exercise: // lookup AUC(0-t) for COc1cc2ncnc(Nc3ccc(F)c(Cl)c3)c2cc1OCCCN1C[C@@H]2OCCO[C@@H]2C1 [larotinib mesylate]
Key: 3970

====

test: phase I plasma pharmacokinetics (non-compartmental, LC-MS/MS); assay type: in vivo, human; details: human, plasma, po, 220 mg, multiple oral administration, 220 mg larotinib mesylate, steady state, plasma; read-out: AUC0-∞,ss, mean (min–max)
Where a name gives a salt, the structure may show the parent alone.
result_type: AUC(0-inf) (ng·h/mL)
Express the result in ng·h/mL but write the number alone.

Exercise: Query (molecule): COc1cc2ncnc(Nc3ccc(F)c(Cl)c3)c2cc1OCCCN1C[C@@H]2OCCO[C@@H]2C1 [larotinib mesylate] ; field requested: AUC(0-inf)
Key: 43600

====

assay: phase I plasma pharmacokinetics (non-compartmental, LC-MS/MS); type: in vivo, human; settings: human, plasma, po, 220 mg, single oral administration, 220 mg larotinib mesylate, plasma; read-out: AUC0-24, mean (min–max)
Structures can show the parent of a compound that is named as a salt.
result_type: AUC(0-t) (ng·h/mL)
Lab book: enter the figure in ng·h/mL, no units written.

Exercise: Look up AUC(0-t) for this compound: COc1cc2ncnc(Nc3ccc(F)c(Cl)c3)c2cc1OCCCN1C[C@@H]2OCCO[C@@H]2C1 [larotinib mesylate]
Key: 3100

====

test: phase I plasma pharmacokinetics (non-compartmental, LC-MS/MS); format: in vivo, human; conditions: human, plasma, po, 300 mg, multiple oral administration, 300 mg larotinib mesylate, steady state, plasma; read-out: Cmax,ss, mean (min–max)
Structures can show the parent of a compound that is named as a salt.
result_type: Cmax (ng/mL)
Output spec: scalar in ng/mL, unitless text.

Exercise: Entry COc1cc2ncnc(Nc3ccc(F)c(Cl)c3)c2cc1OCCCN1C[C@@H]2OCCO[C@@H]2C1 [larotinib mesylate] : reported Cmax = ?
Key: 438

====

test: phase I plasma pharmacokinetics (non-compartmental, LC-MS/MS); format: in vivo, human; conditions: human, plasma, po, 100 mg, multiple oral administration, 100 mg larotinib mesylate, steady state, plasma; read-out: T1/2,ss, mean (min–max) (converted)
Counter-ions that a name gives are not always drawn.
result_type: half-life (h)
Give just the number in h; leave the unit off.

Exercise: Query: half-life; subject: COc1cc2ncnc(Nc3ccc(F)c(Cl)c3)c2cc1OCCCN1C[C@@H]2OCCO[C@@H]2C1 [larotinib mesylate]
Key: 44.8

====

experiment: phase I plasma pharmacokinetics (non-compartmental, LC-MS/MS); type: in vivo, human; settings: human, plasma, po, 220 mg, single oral administration, 220 mg larotinib mesylate, plasma; read-out: AUC0-t, mean (min–max)
Counter-ions that a name gives are not always drawn.
result_type: AUC(0-t) (ng·h/mL)
Give the value, in units of ng·h/mL, as a plain number.

Exercise: Give its AUC(0-t) value. Item: COc1cc2ncnc(Nc3ccc(F)c(Cl)c3)c2cc1OCCCN1C[C@@H]2OCCO[C@@H]2C1 [larotinib mesylate]
Key: 6360

====

test: phase I plasma pharmacokinetics (non-compartmental, LC-MS/MS); format: in vivo, human; conditions: human, plasma, po, 50 mg, single oral administration, 50 mg larotinib mesylate, plasma; read-out: Cmax, mean (min–max)
Counter-ions that a name gives are not always drawn.
result_type: Cmax (ng/mL)
Dear colleague, please return just the value in ng/mL, with no unit written.

Exercise: // lookup Cmax for COc1cc2ncnc(Nc3ccc(F)c(Cl)c3)c2cc1OCCCN1C[C@@H]2OCCO[C@@H]2C1 [larotinib mesylate]
Key: 17.4

====

assay: phase I plasma pharmacokinetics (non-compartmental, LC-MS/MS); assay type: in vivo, human; details: human, plasma, po, 350 mg, single oral administration, 350 mg larotinib mesylate, plasma; read-out: AUC0-24, mean (min–max)
Where a name gives a salt, the structure may show the parent alone.
result_type: AUC(0-t) (ng·h/mL)
Expressed in ng·h/mL, but write only the number.

Exercise: I have this compound here, COc1cc2ncnc(Nc3ccc(F)c(Cl)c3)c2cc1OCCCN1C[C@@H]2OCCO[C@@H]2C1 [larotinib mesylate] , and I need its recorded AUC(0-t).
Key: 3240

====

assay: phase I plasma pharmacokinetics (non-compartmental, LC-MS/MS); format: in vivo, human; conditions: human, plasma, po, 350 mg, single oral administration, 350 mg larotinib mesylate, plasma; read-out: Vz/F, mean (min–max)
Counter-ions that a name gives are not always drawn.
result_type: Vd/F (L)
Write it as a number; the unit L goes unstated.

Exercise: Fill in: Vd/F of COc1cc2ncnc(Nc3ccc(F)c(Cl)c3)c2cc1OCCCN1C[C@@H]2OCCO[C@@H]2C1 [larotinib mesylate] is ___
Key: 3800

====

experiment: phase I plasma pharmacokinetics (non-compartmental, LC-MS/MS); assay type: in vivo, human; details: human, plasma, po, 150 mg, single oral administration, 150 mg larotinib mesylate, plasma; read-out: T1/2, mean (min–max) (converted)
Counter-ions that a name gives are not always drawn.
result_type: half-life (h)
Just the number in h, nothing appended.

Exercise: // returns reported half-life for input COc1cc2ncnc(Nc3ccc(F)c(Cl)c3)c2cc1OCCCN1C[C@@H]2OCCO[C@@H]2C1 [larotinib mesylate]
Key: 39.3

====

test: phase I plasma pharmacokinetics (non-compartmental, LC-MS/MS); format: in vivo, human; details: human, plasma, po, 220 mg, multiple oral administration, 220 mg larotinib mesylate, steady state, plasma; read-out: Vz/F,ss, mean (min–max)
Structures can show the parent of a compound that is named as a salt.
result_type: Vd/F (L)
Report as a plain number; the unit L is understood.

Exercise: I have this compound here, COc1cc2ncnc(Nc3ccc(F)c(Cl)c3)c2cc1OCCCN1C[C@@H]2OCCO[C@@H]2C1 [larotinib mesylate] , and I need its recorded Vd/F.
Key: 553

====

Experiment: phase I plasma pharmacokinetics (non-compartmental, LC-MS/MS)
Format: in vivo, human
Conditions: human, plasma, po, 220 mg, multiple oral administration, 220 mg larotinib mesylate, steady state, plasma; read-out: Cmax,ss, mean (min–max)
Experimental: This was a phase I, single-center, open-label, dose-escalation study conducted at First Hospital of Jilin University, China (registration no.: ChiCTR-OPC-15007153 registered at http://www.chictr.org.cn). […] After cycle 0, larotinib mesylate was continuously administered once daily for 28 days in cycle 1, and the tolerance and pharmacokinetic characteristics of multiple doses were evaluated (Figure 2). […]
Counter-ions that a name gives are not always drawn.
result_type: Cmax (ng/mL)
Field format: number, assumed ng/mL, no unit text.

Exercise: Returns the measured Cmax for the input molecule. Input: COc1cc2ncnc(Nc3ccc(F)c(Cl)c3)c2cc1OCCCN1C[C@@H]2OCCO[C@@H]2C1 [larotinib mesylate]
Key: 553

====

assay: phase I plasma pharmacokinetics (non-compartmental, LC-MS/MS); type: in vivo, human; details: human; multiple oral administration, 100 mg larotinib mesylate, steady state, plasma; read-out: AUCτ,ss, mean (min–max)
Counter-ions that a name gives are not always drawn.
result_type: AUC (ng·h/mL)
Use ng·h/mL as the unit, but write only the number.

Exercise: Param item = COc1cc2ncnc(Nc3ccc(F)c(Cl)c3)c2cc1OCCCN1C[C@@H]2OCCO[C@@H]2C1 [larotinib mesylate] ; retrieve measured AUC.
Key: 1970
